This section presents compounds with their documented hNE/PPE selectivity values.
molecular target: porcine pancreatic elastase (Sus scrofa, UniProt P00772); construct: purchased Sigma, USA; test: Inhibition of porcine pancreatic elastase (hydrolysis of MeOSuc-AAA-pNA); assay type: biochemical; details: ratio of PPE IC50 to hNE IC50
Sequence (P00772 27-266): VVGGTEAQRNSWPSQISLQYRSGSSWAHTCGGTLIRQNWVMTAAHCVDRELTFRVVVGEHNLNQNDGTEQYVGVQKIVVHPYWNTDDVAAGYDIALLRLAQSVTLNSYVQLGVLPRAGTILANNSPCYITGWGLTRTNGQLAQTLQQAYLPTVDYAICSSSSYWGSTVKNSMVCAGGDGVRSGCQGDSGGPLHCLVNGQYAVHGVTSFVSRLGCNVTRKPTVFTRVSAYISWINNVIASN
Where a SMILES comes first, the peptide text is derived from it. [ ]: non-standard residue; d: D form. The star is where a group is joined. Gly(octyl) = CCCCCCCC[C@H](N)C(=O)O; Aad = N[C@@H](CCCC(=O)O)C(=O)O; aThr = C[C@H](O)[C@H](N)C(=O)O; Octanoyl = CCCCCCCC(=O)*; Aze = O=C(O)[C@@H]1CCN1; Dab = NCC[C@H](N)C(=O)O
Format: numeric value only, no unit, no commentary.

Here are 3 compounds together with their reported answers.
{"compound": "CCCCCCCC[C@@H]1NC(=O)[C@@H]2CCCN2C(=O)[C@H]2CCCN2C(=O)[C@H]([C@H](C)O)NC(=O)[C@H](CCCCN)NC(=O)[C@H](CCC(N)=O)NC(=O)[C@@H]2CCCN2C(=O)[C@@H]2CCCN2C(=O)[C@H]([C@@H](C)CC)NC(=O)[C@H](CO)NC(=O)[C@H](C)NC(=O)[C@H]([C@@H](C)O)NC(=O)[C@H](CCC(=O)O)NC1=O [Example 3] (cyclo([Gly(octyl)]ETASIPPQK[aThr][dP]P))", "hNE/PPE selectivity": 209}
{"compound": "CCCCCCCC[C@@H]1NC(=O)[C@@H]2CCCN2C(=O)[C@H]2CCCN2C(=O)[C@H]([C@@H](C)O)NC(=O)[C@H](CCCCN)NC(=O)[C@H](CCC(N)=O)NC(=O)[C@@H]2CCN2C(=O)[C@@H]2CCCN2C(=O)[C@H]([C@@H](C)CC)NC(=O)[C@H](CO)NC(=O)[C@H](C)NC(=O)[C@H]([C@@H](C)O)NC(=O)[C@H](CCC(=O)O)NC1=O [Example 46] (cyclo([Gly(octyl)]ETASIP[Aze]QKT[dP]P))", "hNE/PPE selectivity": 268}
{"compound": "CCCCCCCC[C@@H]1NC(=O)[C@@H]2CCCN2C(=O)[C@H]2CCCN2C(=O)[C@H](CCCC(N)=O)NC(=O)[C@H](CCCCN)NC(=O)[C@H](CCC(N)=O)NC(=O)[C@@H]2CCCN2C(=O)[C@@H]2CCCN2C(=O)[C@H]([C@@H](C)CC)NC(=O)[C@H](CO)NC(=O)[C@H](C)NC(=O)[C@H]([C@@H](C)O)NC(=O)[C@H](CCC(=O)O)NC1=O [Example 5] (cyclo([Gly(octyl)]ETASIPPQK[Aad](NH2)[dP]P))", "hNE/PPE selectivity": 161}

Consider the record given below.
Please give the measured hNE/PPE selectivity for this compound: CCCCCCCC(=O)NCC[C@@H]1NC(=O)[C@@H]2CCCN2C(=O)[C@H]2CCCN2C(=O)[C@H]([C@@H](C)O)NC(=O)[C@H](CCCCN)NC(=O)[C@H](CCC(N)=O)NC(=O)[C@@H]2CCCN2C(=O)[C@@H]2CCCN2C(=O)[C@H]([C@@H](C)CC)NC(=O)[C@H](CO)NC(=O)[C@H](C)NC(=O)[C@H]([C@@H](C)O)NC(=O)[C@H](CCC(=O)O)NC1=O [Example 15] (cyclo([Dab](Octanoyl)ETASIPPQKT[dP]P))
4859

----------
This section presents molecules with their documented pIC50 values.
Target: human neutrophil elastase (Homo sapiens, UniProt P08246)
Sequence (P08246 30-267): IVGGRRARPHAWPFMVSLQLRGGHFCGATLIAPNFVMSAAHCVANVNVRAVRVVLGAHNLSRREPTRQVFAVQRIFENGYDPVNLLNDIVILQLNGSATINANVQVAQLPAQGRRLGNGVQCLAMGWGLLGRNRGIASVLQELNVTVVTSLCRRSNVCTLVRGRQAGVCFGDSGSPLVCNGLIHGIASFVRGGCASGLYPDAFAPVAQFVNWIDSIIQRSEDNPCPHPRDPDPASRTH
Test: Inhibition of human neutrophil elastase (hydrolysis of MeOSuc-AAPV-pNA)
Conditions: substrate MeOSuc-AAPV-pNA 0.3 mM, enzyme 10 nM, 37° C., pH 8; read-out: Human neutrophil elastase (hNE) IC50
*1 amine or outer side, *2 acyl side, *3 side chain or, on linkers, in order; H or OH if unused. Where a SMILES comes first, the peptide text is derived from it. [ ]: non-standard residue; d: D form. X2 = C[C@@H](O)[C@@H](CCC(=O)[*:2])N[*:1]; Oic = O=C(O)[C@@H]1C[C@@H]2CCCC[C@@H]2N1; X1 = NCCCC[C@@H](CCC(=O)[*:2])N[*:1]; Gly(octyl) = CCCCCCCC[C@H](N)C(=O)O; N(CH2CH2COOH)Gly = O=C(O)CCNCC(=O)O; aThr = C[C@H](O)[C@H](N)C(=O)O
pIC50 is a log-scale quantity: -log10 of the concentration expressed in molar.

Here are 5 molecules together with their reported answers.
{"molecule": "CCCCCCCC[C@@H]1NC(=O)[C@@H]2CCCN2C(=O)[C@H]2CCCN2C(=O)[C@H]([C@@H](C)O)NC(=O)[C@H](CCCCN)NC(=O)[C@H](CCC(N)=O)NC(=O)CN(CCC(=O)O)C(=O)[C@@H]2CCCN2C(=O)[C@H]([C@@H](C)CC)NC(=O)[C@H](CO)NC(=O)[C@H](C)NC(=O)[C@H]([C@@H](C)O)NC(=O)[C@H](CCC(=O)O)NC1=O [Example 34] (cyclo([Gly(octyl)]ETASIP[N(CH2CH2COOH)Gly]QKT[dP]P))", "pIC50": 7.52}
{"molecule": "CCCCCCCC[C@@H]1NC(=O)[C@H](C(C)C)NC(=O)[C@@H](CCCCN)NC(=O)[C@H]([C@@H](C)O)NC(=O)[C@H](CCCCN)NC(=O)[C@H](CCC(N)=O)NC(=O)[C@@H]2CCCN2C(=O)[C@@H]2CCCN2C(=O)[C@H]([C@@H](C)CC)NC(=O)[C@H](CO)NC(=O)[C@H](C)NC(=O)[C@H]([C@@H](C)O)NC(=O)[C@H](CCC(=O)O)NC1=O [Example 26] (cyclo([Gly(octyl)]ETASIPPQKT[dK]V))", "pIC50": 7.97}
{"molecule": "CCCCCCCC[C@@H]1NC(=O)[C@@H]2CCCN2C(=O)[C@H]2CCCN2C(=O)[C@H]([C@@H](C)O)NC(=O)CC[C@H](CCCCN)NC(=O)[C@H](CCC(N)=O)NC(=O)[C@@H]2CCCN2C(=O)[C@@H]2CCCN2C(=O)[C@H]([C@@H](C)CC)NC(=O)[C@H](CO)NC(=O)[C@H](C)NC(=O)[C@H]([C@@H](C)O)NC(=O)[C@H](CCC(=O)O)NC1=O [Example 38] (cyclo([Gly(octyl)]ETASIPPQ[X1]T[dP]P))", "pIC50": 7.76}
{"molecule": "CCCCCCCC[C@@H]1NC(=O)[C@@H]2CCCN2C(=O)[C@H]2CCCN2C(=O)CC[C@H]([C@@H](C)O)NC(=O)[C@H](CCCCN)NC(=O)[C@H](CCC(N)=O)NC(=O)[C@@H]2CCCN2C(=O)[C@@H]2CCCN2C(=O)[C@H]([C@@H](C)CC)NC(=O)[C@H](CO)NC(=O)[C@H](C)NC(=O)[C@H]([C@@H](C)O)NC(=O)[C@H](CCC(=O)O)NC1=O [Example 11] (cyclo([Gly(octyl)]ETASIPPQK[X2][dP]P))", "pIC50": 7.94}
{"molecule": "CCCCCCCC[C@@H]1NC(=O)[C@@H]2CCCN2C(=O)[C@H]2CCCN2C(=O)[C@H]([C@@H](C)O)NC(=O)[C@H](CCCCN)NC(=O)[C@H](CCC(N)=O)NC(=O)[C@@H]2CCCN2C(=O)CN(CCC(=O)O)C(=O)[C@H]([C@@H](C)CC)NC(=O)[C@H](CO)NC(=O)[C@H](C)NC(=O)[C@H]([C@@H](C)O)NC(=O)[C@H](CCC(=O)O)NC1=O [Example 7] (cyclo([Gly(octyl)]ETASI[N(CH2CH2COOH)Gly]PQKT[dP]P))", "pIC50": 7.88}

Please give the measured pIC50 for this molecule: CC[C@H](C)[C@@H]1NC(=O)[C@H](CO)NC(=O)[C@H](C)NC(=O)[C@H]([C@@H](C)O)NC(=O)[C@H](C(C)C)NC(=O)[C@H](CCCNC(=N)N)NC(=O)[C@H](CCC(=O)O)NC(=O)[C@H]2CCCN2C(=O)[C@H]([C@@H](C)O)NC(=O)[C@H](CCCCN)NC(=O)[C@H](CCC(N)=O)NC(=O)[C@@H]2C[C@@H]3CCCC[C@@H]3N2C(=O)[C@@H]2CCCN2C1=O [Example 44] (cyclo(RVTASIP[Oic]QKT[dP]E))
8.02

Request: CCCCCCCC[C@@H]1NC(=O)[C@@H]2CCCN2C(=O)[C@H]2CCCN2C(=O)[C@H]([C@H](C)O)NC(=O)[C@H](CCCCN)NC(=O)[C@H](CCC(N)=O)NC(=O)[C@@H]2CCCN2C(=O)[C@@H]2CCCN2C(=O)[C@H]([C@@H](C)CC)NC(=O)[C@H](CO)NC(=O)[C@H](C)NC(=O)[C@H]([C@@H](C)O)NC(=O)[C@H](CCC(=O)O)NC1=O [Example 3] (cyclo([Gly(octyl)]ETASIPPQK[aThr][dP]P))
8.17

Request: CCCCCCCC[C@@H]1NC(=O)[C@@H]2CCCN2C(=O)[C@H]2CCCN2C(=O)[C@H]([C@@H](C)O)NC(=O)[C@H](CCCCN)NC(=O)[C@H](CCC(N)=O)NC(=O)[C@@H]2CCCN2C(=O)[C@@H]2CCCN2C(=O)[C@H]([C@@H](C)CC)NC(=O)[C@H](CO)NC(=O)[C@H](C)NC(=O)[C@H]([C@@H](C)O)NC(=O)[C@H](Cc2ccccc2)NC1=O [Example 13] (cyclo([Gly(octyl)]FTASIPPQKT[dP]P))
8.00
